Test system: Staphylococcus epidermidis
experiment: Antibacterial activity against penicillin-resistant Staphylococcus epidermidis clinical isolate by broth microdilution method
Type: functional
Listing: MIC of selected compounds
Entry rule: numbers only, all in µg/mL.

>>> measured("CC[C@H]1OC(=O)[C@H](C)[C@@H](OC(=O)Nc2cccc(OC)c2)[C@H](C)[C@@H](O[C@@H]2O[C@H](C)C[C@H](N(C)C)[C@H]2OC(C)=O)[C@](C)(O)C[C@@H](C)CN(C)[C@H](C)[C@H]2OC(=O)O[C@@]21C")
32
>>> measured("CC[C@H]1OC(=O)[C@H](C)[C@@H](OC(=O)Nc2ccccc2)[C@H](C)[C@@H](O[C@@H]2O[C@H](C)C[C@H](N(C)C)[C@H]2O)[C@](C)(O)C[C@@H](C)CN(C)[C@H](C)[C@@H](OC(=O)NCc2ccccc2)[C@]1(C)O")
32

Request: Return reported MIC. Input compound: CC[C@H]1OC(=O)[C@H](C)[C@@H](O)[C@H](C)[C@@H](O[C@@H]2O[C@H](C)C[C@H](N(C)C)[C@H]2OC(=O)Nc2ccc(F)cc2)[C@](C)(O)C[C@@H](C)CN(C)[C@H](C)[C@H]2OC(=O)O[C@@]21C
Result: 64

Request: Supply MIC value. Item: CC[C@H]1OC(=O)[C@H](C)[C@@H](OC(=O)Nc2cccc(C)c2)[C@H](C)[C@@H](O[C@@H]2O[C@H](C)C[C@H](N(C)C)[C@H]2O)[C@](C)(O)C[C@@H](C)CN(C)[C@H](C)[C@@H](OC(=O)NCc2ccc(OC)cc2)[C@]1(C)O
Result: 32
